Listed molecules paired with reported pKi
Target: ATP-dependent translocase ABCB1 (Mus musculus)
Test: TP_TRANSPORTER: increase in Calcein-AM intracellular accumulation in mdr1a-expressing LLC-PK1 cells
Scale: negative log10 of molar concentration, which is what pKi denotes.

Clc1ccc(COC(Cn2ccnc2)c2ccc(Cl)cc2Cl)c(Cl)c1 (configuration not stated)	4.65
C[C@@H](CO)NC(=O)[C@@H]1C=C2c3cccc4[nH]cc(c34)C[C@H]2N(C)C1	3.93
CC(C)C[C@H]1C(=O)N2CCC[C@H]2[C@]2(O)O[C@](NC(=O)[C@@H]3C[C@@H]4c5cccc6[nH]cc(c56)C[C@H]4N(C)C3)(C(C)C)C(=O)N12 [DIHYDROERGOCRYPTINE]	3.48
CN1C[C@H](C(=O)N[C@]2(C)O[C@@]3(O)[C@@H]4CCCN4C(=O)[C@H](Cc4ccccc4)N3C2=O)C=C2c3cccc4[nH]cc(c34)C[C@H]21	3.72
CO[C@H]1C[C@H](O[C@H]2[C@H](C)[C@@H](O[C@@H]3O[C@H](C)C[C@H](N(C)C)[C@H]3OC(C)=O)[C@@H](C)C[C@@]3(CO3)C(=O)[C@H](C)[C@@H](OC(C)=O)[C@@H](C)[C@@H](C)OC(=O)[C@@H]2C)O[C@@H](C)[C@@H]1OC(C)=O	3.66

Now for the molecule whose pKi we want.
# input molecule: Clc1ccccc1C(c1ccccc1)(c1ccccc1)n1ccnc1 ; wanted: its pKi
4.74

###

Target: ATP-dependent translocase ABCB1 (Mus musculus)
Assay: TP_TRANSPORTER: increase in Calcein-AM intracellular accumulation in mdr1b-expressing LLC-PK1 cells
Readout type: Ki (µM)
Form entry: value (µM) — number only.

These recorded examples may help you get a feel for the data.
CC(C)C[C@H]1C(=O)N2CCC[C@H]2[C@]2(O)O[C@](NC(=O)[C@@H]3C[C@@H]4c5cccc6[nH]cc(c56)C[C@H]4N(C)C3)(C(C)C)C(=O)N12 [DIHYDROERGOCRYPTINE]	160
CC(C)[C@@]1(NC(=O)[C@@H]2C[C@@H]3c4cccc5[nH]cc(c45)C[C@H]3N(C)C2)O[C@@]2(O)[C@@H]3CCCN3C(=O)[C@H](Cc3ccccc3)N2C1=O [DIHYDROERGOCRISTINE]	167
CC(C)[C@H]1C(=O)N2CCC[C@H]2[C@]2(O)O[C@](NC(=O)[C@@H]3C=C4c5cccc6[nH]cc(c56)C[C@H]4N(C)C3)(C(C)C)C(=O)N12 [ERGOCORNINE]	19.1

Give its Ki value. Item: CC(C)C[C@H]1C(=O)N2CCC[C@H]2[C@]2(O)O[C@](NC(=O)[C@@H]3C=C4c5cccc6[nH]cc(c56)C[C@H]4N(C)C3)(C(C)C)C(=O)N12 [ERGOCRYPTINE]
26.9

Provenance of the data: ChEMBL document CHEMBL2074434
